// provenance: patent US11866450B2

Target: CFTR-mediated chloride transport (Homo sapiens, UniProt P13569)
Sequence (P13569 whole entry, looked up): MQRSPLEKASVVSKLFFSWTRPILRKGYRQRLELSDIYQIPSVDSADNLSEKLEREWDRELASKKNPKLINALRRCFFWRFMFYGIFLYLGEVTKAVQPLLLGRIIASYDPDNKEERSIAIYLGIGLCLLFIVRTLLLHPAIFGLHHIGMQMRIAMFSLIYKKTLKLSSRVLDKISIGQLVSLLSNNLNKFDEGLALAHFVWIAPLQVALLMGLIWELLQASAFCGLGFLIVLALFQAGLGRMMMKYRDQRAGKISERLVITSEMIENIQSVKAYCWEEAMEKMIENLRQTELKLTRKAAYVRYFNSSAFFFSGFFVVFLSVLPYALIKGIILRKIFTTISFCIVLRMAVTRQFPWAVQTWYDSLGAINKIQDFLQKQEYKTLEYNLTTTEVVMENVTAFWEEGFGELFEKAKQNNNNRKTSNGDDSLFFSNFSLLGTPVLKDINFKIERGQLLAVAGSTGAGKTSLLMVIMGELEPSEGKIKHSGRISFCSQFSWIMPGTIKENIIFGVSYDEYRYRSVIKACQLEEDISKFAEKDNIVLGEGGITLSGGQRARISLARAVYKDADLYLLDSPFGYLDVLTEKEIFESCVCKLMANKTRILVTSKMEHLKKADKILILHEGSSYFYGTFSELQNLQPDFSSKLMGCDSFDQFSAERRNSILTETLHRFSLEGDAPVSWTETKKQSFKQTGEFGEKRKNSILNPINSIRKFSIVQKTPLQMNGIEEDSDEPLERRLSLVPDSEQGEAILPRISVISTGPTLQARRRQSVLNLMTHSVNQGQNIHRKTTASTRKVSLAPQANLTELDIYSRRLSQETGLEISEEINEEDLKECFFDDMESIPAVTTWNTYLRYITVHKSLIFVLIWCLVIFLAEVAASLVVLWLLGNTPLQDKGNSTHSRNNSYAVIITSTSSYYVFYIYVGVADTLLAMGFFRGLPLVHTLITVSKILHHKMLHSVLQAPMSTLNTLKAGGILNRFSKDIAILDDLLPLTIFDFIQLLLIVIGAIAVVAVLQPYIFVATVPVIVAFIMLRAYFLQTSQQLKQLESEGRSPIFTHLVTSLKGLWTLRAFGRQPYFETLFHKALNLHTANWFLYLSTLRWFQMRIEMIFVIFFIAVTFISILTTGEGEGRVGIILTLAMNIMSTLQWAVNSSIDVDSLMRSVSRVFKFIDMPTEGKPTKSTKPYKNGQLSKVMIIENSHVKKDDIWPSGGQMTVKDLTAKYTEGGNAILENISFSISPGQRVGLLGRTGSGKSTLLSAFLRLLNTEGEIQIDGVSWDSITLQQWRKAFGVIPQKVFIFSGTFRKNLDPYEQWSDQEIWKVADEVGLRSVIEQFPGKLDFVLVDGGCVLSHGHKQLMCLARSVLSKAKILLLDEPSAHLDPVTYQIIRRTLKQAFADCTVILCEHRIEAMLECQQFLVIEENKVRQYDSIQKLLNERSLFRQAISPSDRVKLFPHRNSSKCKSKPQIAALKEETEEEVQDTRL
Format: cell-based
Conditions: enteroid cells incubated with test compound 18-24 hours; acute 10 μM forskolin and 300 nM Compound III; % of chloride transport with 3 μM Compound A, 3 μM Compound II and 300 nM acute Compound III triple combination control
Metric: Max. Activity

Compound	Reported Value
Cc1nn2cc1S(=O)(=O)NC(=O)c1ccc(-n3ccc(OCCC4(C(F)(F)F)CC4)n3)nc1N1CC(CCC2)CC1(C)C (centres unmarked) [Compound 19]	++ (++ is 30-60%)
CC1(C)C[C@H]2CCNc3cccc(n3)S(=O)(=O)NC(=O)c3ccc(-n4ccc(OCCC(C5CC5)C5CC5)n4)nc3N1C2 (single isomer, unassigned) [Compound 251]	++ (++ is 30-60%)
CC(C)(C)CC[C@H]1CCN(c2ccc3c(n2)N2C[C@@H](CCCNc4cccc(n4)S(=O)(=O)NC3=O)CC2(C)C)C1=O (single isomer, unassigned) [Compound 127]	+++ (+++ is >60%)
CC1(C)C[C@H]2CCCNc3cccc(n3)S(=N)(=O)NC(=O)c3ccc(-n4ccc(OCCC5(C(F)(F)F)CC5)n4)nc3N1C2 (single isomer, unassigned) [Compound 267]	+++ (+++ is >60%)
[2H]c1ccc2nc1NCCC[C@@H]1CN(c3nc(-n4ccc(OC([2H])([2H])C([2H])([2H])C5C6(CC6)C56CC6)n4)ccc3C(=O)NS2(=O)=O)C(C)(C)C1 [Compound 301]	+++ (+++ is >60%)
